Molecular target: human Claudin18.2 (human)
Assay: cell-based or functional assay
Metric name: CDC EC50 (µg/mL)
Answers are plain numbers, in µg/mL.

# example entries with known answers
259C6F4 (antibody, V domains shown) VH: QAYLQQSGAELVRSGASVKMSCKASGYTFSSHNIHWVKQTPGQGLEWIGYIYPGNGDTNYNQKFKGKATLTADTSSSTAYMQISSLTSEDSAVYFCARDYYGNSFVYWGQGTLVTVSA VL: DIVMIQSPSSLTEKAGEKVSMSCKSSQSLLNSGNQKNYLTWYQQKPGQPPKLLIYWASTRESGVPDRFTGSGSGTDFTLTISSVQAEDLAVYYCQNAYRFPFTFGAGTKLELK: 1.19
259B4D4 (antibody, V domains shown) VH: EIQLQQSGPELMKPGASVRISCKASGYSFTSYYMHWMKQSHVKSLEWIGYIDPFNGNTRYNQKFKDKATLTVDKSSTTAYMHLSSLTSEDSAVYFCASLRFFAYWGQGTLVTVSA VL: DIVMTQSPSSLTVTAGEKVTMSCNSSQSLLNSGNQKNYLTWYQQKPGQPPKLLIYWASSRESGVPDRFTGSGSGTDFTLTISTVQAEDLAVYYCQNDYSFPLTFGAGTRLELK: 1.69

Now consider a different binder.
For the binder 241H10A1 (antibody, V domains shown) VH: QVQLQQSGAELVKPGASVKLSCKASGYTFTSFGINWLRQRPEQGLEWIGWIFPGDGNSKYNENFKGKATLTTDKSSSTAYMQVTRLTSEDSAVYFCARFYYGNSFANWGQGTLVTVSA VL: DIVMTQSPSSLTVTAGEKVTMSCKSSQSLLNSGNQKNYLTWYQQKPGQPPKLLIYWAATRESGVPDRFTGSGSGTDFTLTISSVQAEDLAVYYCQNDYFYPFTFGGGTKLELK , report CDC EC50.
0.225
